Origin of values: patent US5710153A

- target.desc: human ICE (Homo sapiens)
- Sequence (P29466 120-297 limits assumed): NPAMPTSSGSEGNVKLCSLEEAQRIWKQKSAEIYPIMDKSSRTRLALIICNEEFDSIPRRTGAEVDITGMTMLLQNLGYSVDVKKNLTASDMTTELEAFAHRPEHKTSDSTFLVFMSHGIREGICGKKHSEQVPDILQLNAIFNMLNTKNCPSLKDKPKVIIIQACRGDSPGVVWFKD
- Sequence (P29466 317-404 limits assumed): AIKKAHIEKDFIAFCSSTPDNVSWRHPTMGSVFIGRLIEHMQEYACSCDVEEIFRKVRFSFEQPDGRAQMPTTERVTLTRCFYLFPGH
measured.attribute: IC50 (nM)

compound="CC(C)[C@H](NC(=O)CCc1ccccc1)C(=O)N[C@@H](C)C(=O)NC(CC(=O)O)C(=O)Cn1nnc(-c2c(Cl)cccc2Cl)n1 (stereo partly shown)" target_desc="human ICE (Homo sapiens)" measured_value=30
